- tested target: Acro COVID S1 (S1N-C82E8) (SARS-CoV-2, UniProt P0DTC2 16-685)
- experiment summary: phage ELISA
Catalogue of binders with associated specificity ELISA, fold over background
experimental endpoint: specificity ELISA, fold over background (fold over background)

>>> numeric_result("variant 2-5 (antibody, V domains shown) VH: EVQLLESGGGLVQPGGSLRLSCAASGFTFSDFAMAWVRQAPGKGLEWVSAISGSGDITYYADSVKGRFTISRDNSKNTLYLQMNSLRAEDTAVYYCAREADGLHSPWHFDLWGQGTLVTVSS VL: DIQMTQSPSSLSASVGDRVTITCRASQSIHTYLNWYQQKPGKAPKLLIYAASALASGVPSRFSGSGSGTDFTLTISSLQPEDFATYYCQQSYSAPPYTFGQGTKVEIK")
38.3
>>> numeric_result("variant 2-2 (antibody, V domains shown) VH: EVQLLESGGGLVQPGGSLRLSCAASGFTFSRHAMNWVRQAPGKGLEWVSGISGSGDETYYADSVKGRFTISRDNSKNTLYLQMNSLRAEDTAVYYCARDLPASYYDSSGYYWHNGMDVWGQGTLVTVSS VL: DIQMTQSPSSLSASVGDRVTITCRASQTINTYLNWYQQKPGKAPKLLIYSASTLQSGVPSRFSGSGSGTDFTLTISSLQPEDFATYYCQQSYSTFTFGQGTKVEIK")
39.4
>>> numeric_result("variant 2-1 (antibody, V domains shown) VH: EVQLLESGGGLVQPGGSLRLSCAASGFTFSNYATDWVRQAPGKGLEWVSIISGSGGATYYADSVKGRFTISRDNSKNTLYLQMNSLRAEDTAVYYCAKGGYCSSDTCWWEYWLDPWGQGTLVTVSS VL: DIQMTQSPSSLSASVGDRVTITCRASQSIHRFLNWYQQKPGKAPKLLIYAASNLHSGVPSRFSGSGSGTDFTLTISSLQPEDFATYYCQQSYGLPPTFGQGTKVEIK")
39.3
>>> numeric_result("variant 2-4 (antibody, V domains shown) VH: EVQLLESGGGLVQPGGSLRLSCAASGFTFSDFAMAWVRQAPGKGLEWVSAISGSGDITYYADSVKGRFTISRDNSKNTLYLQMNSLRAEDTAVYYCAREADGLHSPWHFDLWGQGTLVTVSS VL: DIQMTQSPSSLSASVGDRVTITCRASQSIDTYLNWYQQKPGKAPKLLIYAASALASGVPSRFSGSGSGTDFTLTISSLQPEDFATYYCQQSYSAPPYTFGQGTKVEIK")
37.7
>>> numeric_result("variant 2-8 (antibody, V domains shown) VH: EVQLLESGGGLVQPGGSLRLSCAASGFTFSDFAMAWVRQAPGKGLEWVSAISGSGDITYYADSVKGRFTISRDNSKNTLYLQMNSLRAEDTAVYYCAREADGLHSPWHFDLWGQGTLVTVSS VL: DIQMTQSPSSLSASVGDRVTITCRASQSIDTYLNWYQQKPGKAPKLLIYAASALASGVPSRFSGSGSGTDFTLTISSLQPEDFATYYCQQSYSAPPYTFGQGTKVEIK")
35.9
>>> numeric_result("variant 2-12 (antibody, V domains shown) VH: EVQLLESGGGLVQPGGSLRLSCAASGFTFSDYPMNWVRQAPGKGLEWVSTISGSGGITFYADSVKGRFTISRDNSKNTLYLQMNSLRAEDTAVYYCVRHDEYSFDYWGQGTLVTVSS VL: DIQMTQSPSSLSASVGDRVTITCRASQSIDNYLNWYQQKPGKAPKLLIYGVSALQSGVPSRFSGSGSGTDFTLTISSLQPEDFATYYCQQSHSAPPYFFGQGTKVEIK")
39.8
